Sourced from ChEMBL document CHEMBL3507680

assay: Human HepG2 cell viability assay in 384 well format; assay type: toxicity, cell-based; parameters: dose 125 nL, time 70.5 hour; concentration not given beside the values; conditions: HepG2 cells, read-out: Inhibition
Observation Type: cytotoxicity at 70.5 h (%)
Answers are plain numbers, in %.

Worked examples, 8 compounds total:
> print(dat)
                                   compound  recorded.measurement
1  O=C(CCn1cncn1)NCC(c1ccco1)N1CCCC1 (stereo not drawn)                 -4.48
2  CC(C)n1c(C2CCCN(CCS(C)(=O)=O)C2)nc2ccccc21 (stereo not drawn)                -0.395
3  Cc1nc(CCNC(=O)NCC(O)c2cccc(Cl)c2)cs1 (stereo not drawn)                 -7.03
4    Cc1csc(CNC(=O)N(C)Cc2ccc3c(c2)OCCO3)n1                 -10.6
5  Cc1cc(C)c(CNC(=O)N2CCC(N3CCCC3)CC2)c(=O)[nH]1                 -7.61
6  Cc1ccc(CN(C)C(=O)CN2CCCC2c2cnn(C)c2)cc1 (stereo not drawn)                 -6.75
7  O=C1CO[C@H]2CN(S(=O)(=O)c3ccccc3)C[C@H]2N1Cc1ccccn1                   -15
8      Cc1cc(=O)n2nc(Oc3ccc(C#N)cc3Cl)sc2n1                   -28

Hi there! I need cytotoxicity at 70.5 h for each item below, if you can.
1. O=C(O)[C@@H]1CN(C(=O)CN2CCCCCC2)C[C@H]1c1ccccc1
2. CNC(=O)CCc1cc(C)nc(C2CCCN2)c1 (stereo not drawn)
3. CC(C)CNC(=O)C1(Cc2ccccc2-c2cccs2)CCNC1 (stereo not drawn)

Result:
1: 1.47; 2: -13.7; 3: -0.684

* * *

test: Human HepG2 cell viability assay in 384 well format; type: toxicity, cell-based; parameters: dose 125 nL, time 70.5 hour; concentration not given beside the values; conditions: HepG2 cells, read-out: Inhibition
Please respond with reported cytotoxicity at 70.5 h for every item in the list.
Numbers only, in %.

Worked examples, 5 molecules total:
> print(dat)
                                   molecule  recorded.measurement
1  CN(C)C[C@H]1OC[C@@H]2CCN(C(=O)Cc3cccs3)C[C@@H]21                 -9.21
2  Cc1nc(CN(C)C2CCN(CC3CCOCC3)C2)no1 (stereo not drawn)                 -2.15
3  COCC(NC(=O)c1ccco1)c1cccc(C(F)(F)F)c1 (stereo not drawn)                 -3.48
4     CC(C)(NS(C)(=O)=O)C(=O)NCc1cccc(Br)c1                 -7.07
5  CCN(C(=O)CN1CCCC1c1ccc(OC)cc1)c1ccccc1 (stereo not drawn)                  2.59

Hi there! I need cytotoxicity at 70.5 h for each item below, if you can.
1. O=C(c1cccc(F)c1)N1C[C@H]2CCCC(OCc3cccnc3)[C@H]2C1 (stereo partly drawn)
2. NC(=O)C1CCN(C(=O)c2cccc(OCc3cscn3)c2)CC1
3. CCc1noc(CN2CCOC3(CCCC3)C2)n1
4. CN(C)S(=O)(=O)N1C[C@@H](Oc2ccccn2)[C@H]2OCCC[C@H]21

Result:
1: -7.83; 2: -12.5; 3: -2.11; 4: -7.76

Hi there! I need cytotoxicity at 70.5 h for each item below, if you can.
1. Cc1ccc(CN2C(=O)CC[C@]23CC[C@@H](NCC2CCOC2)CC3)cc1 (stereo partly drawn)
2. Cc1ccc(CN(C)C(=O)CCNS(=O)(=O)c2cccnc2)cc1
3. CCS(=O)(=O)N(C)C1CCN(c2cccc(F)c2C(C)=O)CC1
4. CC(C)=CCC/C(C)=C/CN1CCN(C)C2(CCNC(=O)CC2)C1 (stereo not drawn)
5. COC[C@]1(O)CCN(Cc2c[nH]c(CC3CCCC3)n2)CC1(C)C
6. CN(Cc1cc(F)cc2cccnc12)CC1CCN(CCO)CC1

Result:
[18.5, -7.21, -4.38, -9.38, 30.4, -8.39]

Hi there! I need cytotoxicity at 70.5 h for each item below, if you can.
1. Cc1cc(CCC(=O)Nc2nncs2)nc(C2CCCN2)n1 (stereo not drawn)
2. COCc1ncn2c1CN(C(=O)c1cnc3ccccc3c1)CC2
3. Cc1nn(CCNC(C)Cn2ccnc2)c(C)c1Cl (stereo not drawn)
4. CCC(c1nc(C(C)C)nn1-c1ccccn1)n1cccn1 (stereo not drawn)
5. COCCC(=O)N1C[C@H]2CN(Cc3cccc(C)c3)C(=O)[C@H]2C1

Result:
[1.25, 1.48, -1.29, 17.2, -10.7]

Hi there! I need cytotoxicity at 70.5 h for each item below, if you can.
1. O=C1NCCCCC1Sc1ccc(F)c(F)c1 (stereo not drawn)
2. Cc1cnn(C2CN(CCOc3cccc(C#N)c3)C2)c1
3. Cc1cccc(NC(=O)c2[nH]nc(C(C)C)c2Br)n1

Result:
1. -13.1
2. -5.43
3. 23.8
